Test system: CD2F1 mice, L1210 leukemia ip, survival T/C
Experiment: NCI In Vivo Anticancer Drug Screen. Data for tumor model L1210 Leukemia (intraperitoneal) in CD2F1 (CDF1) mice
Settings: endpoint: mean survival time; dose: 100.0 mg/kg/injection; schedule: Q01DX001 (ip); vehicle: other; higher = longer survival
Inconclusive results and toxic doses are left out.
Each entry below carries its reported T/C.

{"compound": "Cc1c2ccncc2c(C)c2c1oc1ccccc12", "T/C": "108 % of control"}
{"compound": "Clc1ccc(Nc2ccccc2)cc1", "T/C": "90 % of control"}
{"compound": "Nc1c(C(=O)NOCc2ccccc2)ncn1C1CCCC1", "T/C": "102 % of control"}
{"compound": "O=P(OCCCOCc1ccccc1)(N(CCCl)CCCl)N1CC1 (stereo unspecified)", "T/C": "118 % of control"}
{"compound": "COC(=N)CC(=O)C(C)(C)C", "T/C": "102 % of control"}
{"compound": "O=C1C=CC(=NS(=O)(=O)c2ccccc2)C=C1", "T/C": "104 % of control"}

---

System: CD2F1 mice, L1210 leukemia ip, survival T/C
Test: NCI In Vivo Anticancer Drug Screen. Data for tumor model L1210 Leukemia (intraperitoneal) in CD2F1 (CDF1) mice
Conditions: endpoint: mean survival time; dose: 6.25 mg/kg/injection; schedule: Q01DX009 (ip); vehicle: saline with Tween-80
Toxic doses and inconclusive results are not listed. How the source made its calls: active means survival T/C of 150% or more; inactive means T/C below 125% in these data.
Outcome codes: yes = active, no = inactive

{"compound": "c1ccc2c3c([nH]c2c1)CN1CCNCC1C3 (stereo unspecified)", "label-value": "no"}
{"compound": "C[n+]1c(/C=C\\c2ccc(Cl)cc2)ccc2ccccc21", "label-value": "no"}
{"compound": "Cc1ncc(CNC(=O)N(CCCl)N=O)c(N)n1", "label-value": "yes"}
{"compound": "CC1=C(C)C(=O)O[C@@H]([C@](C)(O)[C@]2(O)CC[C@@]3(O)[C@@H]4C[C@H]5O[C@]56CC=CC(=O)[C@]6(C)[C@H]4CC[C@]23C)C1", "label-value": "no"}
{"compound": "COc1cc(OC)c(OC)cc1/C=c1\\[nH]c(=O)/c(=C/c2cc(OC)c(OC)cc2OC)[nH]c1=O", "label-value": "no"}
{"compound": "CN(C)c1ccc(C2OC3(CCCCC3)C[N+]23CCCC3)cc1 (stereo unspecified)", "label-value": "no"}
{"compound": "Cc1cc(N(CCOS(C)(=O)=O)CCOS(C)(=O)=O)ccc1C=Nc1ccc(-c2csc(Cc3ccccc3)n2)cc1", "label-value": "no"}
{"compound": "CCCCNCCC(SSSC(CCNCCCC)c1ccc(Cl)cc1)c1ccc(Cl)cc1 (stereo unspecified)", "label-value": "no"}
{"compound": "NC1CCC(CCCC2CCCC2)CC1 (stereo unspecified)", "label-value": "no"}
{"compound": "O=[N+]([O-])/C(=C/c1ccccc1)c1ccccc1", "label-value": "no"}
{"compound": "O=[N+]([O-])/C=C\\c1cc2c3c(c1)CCCN3CCC2", "label-value": "no"}

---

Test system: CD2F1 mice, L1210 leukemia ip, survival T/C
Assay: NCI In Vivo Anticancer Drug Screen. Data for tumor model L1210 Leukemia (intraperitoneal) in CD2F1 (CDF1) mice
Details: endpoint: mean survival time; dose: 200.0 mg/kg/injection; schedule: Q01DX009 (ip); vehicle: saline sonified; higher = longer survival
Toxic doses and inconclusive results are not listed.
Listing of recorded T/C by entry.

{"compound": "Nc1ccc(OCc2ccc(C(=O)Nc3cccc(S(=O)(=O)F)c3)cc2)c(Cl)c1", "target-entity": "CD2F1 mice, L1210 leukemia ip, survival T/C", "T/C": "95 % of control"}
{"compound": "c1ccc2nc(NCCSSCCNc3cnc4ccccc4n3)cnc2c1", "target-entity": "CD2F1 mice, L1210 leukemia ip, survival T/C", "T/C": "93 % of control"}
{"compound": "CN(C)c1ccc(Cc2cc(O)c3c(c2O)C(=O)c2ccccc2C3=O)cc1", "target-entity": "CD2F1 mice, L1210 leukemia ip, survival T/C", "T/C": "100 % of control"}
{"compound": "C1CN(CCSSCCN2CCOCC2)CCO1", "target-entity": "CD2F1 mice, L1210 leukemia ip, survival T/C", "T/C": "103 % of control"}
{"compound": "COc1ccc(C2(C#N)CCCC2)cc1", "target-entity": "CD2F1 mice, L1210 leukemia ip, survival T/C", "T/C": "102 % of control"}
{"compound": "CCOC(=O)/C(C)=C/C(O)CO (stereo unspecified)", "target-entity": "CD2F1 mice, L1210 leukemia ip, survival T/C", "T/C": "95 % of control"}

---

Test system: CD2F1 mice, L1210 leukemia ip, survival T/C
Assay: NCI In Vivo Anticancer Drug Screen. Data for tumor model L1210 Leukemia (intraperitoneal) in CD2F1 (CDF1) mice
Conditions: endpoint: mean survival time; dose: 12.5 mg/kg/injection; schedule: Q01DX005 (ip); vehicle: other; higher = longer survival
Toxic doses and inconclusive results are not listed.
Listing: T/C of selected compounds
value-type: T/C

{"compound": "CSc1nccc2c1nnn2C1OC(CO)C(O)C1O (stereo not given)", "target-entity": "CD2F1 mice, L1210 leukemia ip, survival T/C", "result": "101 % of control"}
{"compound": "OCC1OC(n2ncc3c(Nc4ccccc4)ncnc32)C(O)C1O (stereo not given)", "target-entity": "CD2F1 mice, L1210 leukemia ip, survival T/C", "result": "91 % of control"}
{"compound": "O=c1[nH]cnc2c1ncn2C1OC(CO)C(O)C1O.[Ag+] (stereo not given)", "target-entity": "CD2F1 mice, L1210 leukemia ip, survival T/C", "result": "92 % of control"}
{"compound": "COc1cccc(C(=O)O)c1C(=O)O", "target-entity": "CD2F1 mice, L1210 leukemia ip, survival T/C", "result": "92 % of control"}
{"compound": "O=C1c2ccccc2C(=O)c2c(O)c(N3CCC(C(=O)O)CC3)cc(O)c21", "target-entity": "CD2F1 mice, L1210 leukemia ip, survival T/C", "result": "106 % of control"}

---

System: CD2F1 mice, L1210 leukemia ip, survival T/C
Assay: NCI In Vivo Anticancer Drug Screen. Data for tumor model L1210 Leukemia (intraperitoneal) in CD2F1 (CDF1) mice
Settings: endpoint: mean survival time; dose: 400.0 mg/kg/injection; schedule: Q04DX003 (ip); vehicle: saline with Tween-80; higher = longer survival
Inconclusive results and toxic doses are left out.
Quick reference for T/C among some compounds

{"compound": "CCOC(=O)/C(=C(\\[O-])OCC)[n+]1ccccc1", "T/C": "100 % of control"}
{"compound": "O=C(C1=CN(CCCO)CCC1)c1cc2ccccc2n1S(=O)(=O)c1ccccc1", "T/C": "97 % of control"}
{"compound": "O=C(NC(O)C(Cl)(Cl)Cl)C(Cl)(Cl)Cl (configuration not stated)", "T/C": "104 % of control"}
{"compound": "NNC(=O)c1ccc(C(=O)NN)cc1", "T/C": "96 % of control"}
{"compound": "COc1ccc(NC(=O)c2ccccc2)c([N+](=O)[O-])c1", "T/C": "94 % of control"}
{"compound": "C#CCOC(=O)Nc1cccc(OC(=O)NC)c1", "T/C": "97 % of control"}
{"compound": "CNC(=O)c1ccccc1C(c1ccccc1)C1(O)CCCCC1 (configuration not stated)", "T/C": "93 % of control"}

---

As shown below, each of these molecules has a reported T/C value.
System: CD2F1 mice, L1210 leukemia ip, survival T/C
Test: NCI In Vivo Anticancer Drug Screen. Data for tumor model L1210 Leukemia (intraperitoneal) in CD2F1 (CDF1) mice
Settings: endpoint: mean survival time; dose: 25.0 mg/kg/injection; schedule: Q01DX005 (ip); vehicle: distilled water + Tween-80; higher = longer survival
Toxic doses and inconclusive results are not listed.
value-type: T/C

{"molecule": "CC1(C)OCC(C2OC(On3nnc4ccc(Cl)cc43)C3OC(C)(C)OC23)O1 (stereo not drawn)", "target-entity": "CD2F1 mice, L1210 leukemia ip, survival T/C", "value-type": "T/C", "result": "96 % of control"}
{"molecule": "CC(=O)/C=C\\C1OC(n2ccc(=O)[nH]c2=O)C2OC(C)(C)OC12 (stereo not drawn)", "target-entity": "CD2F1 mice, L1210 leukemia ip, survival T/C", "value-type": "T/C", "result": "103 % of control"}
{"molecule": "O=c1n(C2OC(CO)C(O)C2O)ccc2nnnn12 (stereo not drawn)", "target-entity": "CD2F1 mice, L1210 leukemia ip, survival T/C", "value-type": "T/C", "result": "96 % of control"}
{"molecule": "CC(=O)O/C=C/C=C/C=N/c1nc2c(c(=O)n(C)c(=O)n2C)n1C", "target-entity": "CD2F1 mice, L1210 leukemia ip, survival T/C", "value-type": "T/C", "result": "91 % of control"}
{"molecule": "Nc1nc(=O)n2ccn(C3OC(CO)C(O)C3O)c2n1 (stereo not drawn)", "target-entity": "CD2F1 mice, L1210 leukemia ip, survival T/C", "value-type": "T/C", "result": "100 % of control"}
{"molecule": "CSc1nc(N)c2c3c(N)ncnc3n(C3OC(CO)C(O)C3O)c2n1 (stereo not drawn)", "target-entity": "CD2F1 mice, L1210 leukemia ip, survival T/C", "value-type": "T/C", "result": "97 % of control"}
{"molecule": "O=C(O)CCCCCSc1nn(C2OC(CO)C(O)C2O)c(=O)[nH]c1=O (stereo not drawn)", "target-entity": "CD2F1 mice, L1210 leukemia ip, survival T/C", "value-type": "T/C", "result": "104 % of control"}
{"molecule": "Nc1nc2c(nc(NCc3ccccc3)n2C2OC(CO)C(O)C2O)c(=O)[nH]1 (stereo not drawn)", "target-entity": "CD2F1 mice, L1210 leukemia ip, survival T/C", "value-type": "T/C", "result": "95 % of control"}
